- PROTOCOL SUMMARY: binders of probe aFST on microarray, primary screen, stem cell growth factor project, biochemical, small-molecule microarray, fluorescence 635/667 (AID 1086);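 note: score merges 667 nm fluorescence with signal-to-noise of each printed compound spot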
- RUN CONDITIONS: higher = more signal
VALUE TYPE: composite z-score

q: // lookup composite z-score for O=C1OCCC=C[C@H]2OC34C=CCN(Cc5ccccc5)C(=O)[C@H]3N(CCCCCCO)C(=O)[C@@H]4C12 (stereo partly specified)
a: -0.26

q: // lookup composite z-score for "CCCCC=C[C@@H](NC(=O)c1cccs1)c1ccccc1"
a: 0.409

q: // lookup composite z-score for "CCOC(=O)C[C@H]1[C@H](OC(=O)c2ccc(C(=O)c3ccccc3)cc2)[C@@H](NC(=O)C2CCCCC2)c2cc(OCCCO)ccc2N1C(=O)c1ccccc1"
a: 0.253

q: // lookup composite z-score for "COc1ccc([Si](C)(C)[C@@H]2[C@@H](CC(=O)N(CCO)Cc3ccccc3)O[C@]3(C(=O)N(C)c4ccccc43)[C@H]2C)cc1"
a: 1.21

q: // lookup composite z-score for CCCCCN1CC=CC23O[C@@H]4C=CCOC(=O)[C@@H]4[C@H]2C(=O)N(CCCO)[C@@H]3C1=O (stereo partly specified)
a: -0.643

q: // lookup composite z-score for "O=C1N(CCS(=O)(=O)c2ccccc2)Cc2ccccc2[C@H]2OC(c3ccc(OCCCO)cc3)=N[C@@]12CCS(=O)(=O)c1ccccc1"
a: 0.593

q: // lookup composite z-score for C=CC[C@@]1(C(=O)NCC(O)CO)N=C(c2ccc(OCCCO)cc2)O[C@@H]1c1ccccc1N=[N+]=[N-] (stereo partly specified)
a: 1.39

q: // lookup composite z-score for CC(C)C(O)C1C=CC2C(=O)N(c3ccccc3)C(=O)C2N1Nc1ccc(C#N)cc1 (stereo unspecified)
a: 1.49

q: // lookup composite z-score for COc1cccc(C(=O)O[C@H]2CC[C@]3(C)C4=C(CCC3C2(C)C)[C@]2(C)CC[C@H]([C@H](C)CCCC(C)C)[C@@]2(C)CC4)c1 (stereo partly specified)
a: 0.169

q: // lookup composite z-score for C[C@H]1NC(=O)[C@H](Cc2ccccc2)NC(=O)[C@@]23C(=O)N[C@@H](Cc4ccccc4)C2[C@H](C)[C@@]2(C)O[C@H]2C3/C=C/C/C=C\CNC1=O (stereo partly specified)
a: -0.146

q: // lookup composite z-score for CN1C(=O)C2C=CC(C(O)c3ccccn3)N(Nc3ccccc3)C2C1=O (stereo unspecified)
a: 0.113

q: // lookup composite z-score for "C=CCOC(=O)[C@@H]1[C@H]2C(=O)O[C@H](c3ccccc3)[C@H](c3ccccc3)N2[C@H](c2ccc(OCCOC(=O)[C@@H]3C[C@@H]4C(=O)NCC(=O)N4[C@@H]3c3cccc(OCCO)c3)cc2)[C@@]12C(=O)Nc1ccc(I)cc12"
a: 0.272

q: // lookup composite z-score for "COCC(=C=CC[C@@H](O)c1ccc(CO)o1)CCO"
a: -0.0032

q: // lookup composite z-score for "C=CCOC(=O)[C@H]1[C@@H]2C(=O)O[C@@H](c3ccccc3)[C@@H](c3ccccc3)N2[C@@H](c2ccc(OCCOC(=O)[C@@H]3C[C@@H]4C(=O)NCC(=O)N4[C@@H]3c3ccc(O)cc3)cc2)[C@]12C(=O)Nc1ccccc12"
a: -0.112

q: // lookup composite z-score for COC(=O)c1ccc(OC)c(/C=C\CC(OC(C)=O)c2ccccc2)c1 (stereo unspecified)
a: -0.405

q: // lookup composite z-score for "CCCCC=C[C@@H](NC(=O)c1ccc(C(=O)OC)cc1)c1ccccc1"
a: 0.474

q: // lookup composite z-score for "O=C1C[C@]2(c3ccc([N+](=O)[O-])cc3)C(=O)N(CC(F)(F)F)c3cc(CO)ccc3[C@H]2N1CC12CC3CC(CC(C3)C1)C2"
a: 0.0443

q: // lookup composite z-score for "C[C@]1(C(=O)NCc2ccccc2)c2ccccc2C(=O)N(Cc2cc(F)cc(C(F)(F)F)c2)[C@H]1c1ccc(CO)cc1"
a: -0.344

q: // lookup composite z-score for "CN(C)C(=O)[C@]1(CCC(=O)OC(C)(C)C)N=C(c2ccc(OCCCO)cc2)O[C@@H]1c1ccccc1N=[N+]=[N-]"
a: 1.43

q: // lookup composite z-score for "COC(=O)[C@@]1(Cc2ccccc2N=[N+]=[N-])COC(c2ccc(OCCCO)cc2)=N1"
a: 0.498

q: // lookup composite z-score for CC(C)(C)N1CC=CC23O[C@@H]4C=CCOC(=O)[C@@H]4[C@H]2C(=O)N(CCCCCO)[C@@H]3C1=O (stereo partly specified)
a: 0.411

q: // lookup composite z-score for "CC(C)(C)OC(=O)CC[C@@]1(C(=O)NCCN2CCOCC2)N=C(c2ccc(OCCCO)cc2)O[C@@H]1c1ccccc1"
a: 0.972

q: // lookup composite z-score for "O=C1C=CC(=O)[C@@H]2CC(COc3ccccc3)=C3[C@@H](CCc4ccccc4)OB(O)C[C@@H]3[C@H]12"
a: -0.467

q: // lookup composite z-score for "CCOC(=O)C1=CC[C@@H](c2ccccc2Cl)N(S(=O)(=O)c2ccc(C)cc2)C1"
a: 0.802

q: // lookup composite z-score for CC(C)(C)N1CC=CC23O[C@@H]4/C=C\CCCOC(=O)C4[C@H]2C(=O)N(CCO)[C@@H]3C1=O (stereo partly specified)
a: -0.681

q: // lookup composite z-score for "O=C(CCN1CCOCC1)c1cccc(O)c1"
a: 0.852

q: // lookup composite z-score for N#Cc1ccc(NN2C(C(O)c3ccc([N+](=O)[O-])cc3)C=CC3C(=O)N(c4ccccc4)C(=O)C32)cc1 (stereo unspecified)
a: 0.899

q: // lookup composite z-score for C=CCC(OC(C)=O)[C@@H]1[C@@H](N(Cc2cc3ccccc3o2)C(=O)c2ccc(C)cc2)c2cc(OCCCO)ccc2N1C(=O)c1ccc2ccccc2c1 (stereo partly specified)
a: -0.0921

q: // lookup composite z-score for "COc1ccc(CCNC(=O)[C@@]2(Sc3ccc(C)cc3)CC(=O)N(Cc3ccccc3Cl)[C@@H]2c2ccc(CO)cc2I)cc1"
a: -0.299

q: // lookup composite z-score for "CC(C)C[C@@H]1NC(=O)[C@H]2C[C@@H](C(=O)NCCCCCCNC(=O)CS)[C@@H](c3cccc(OCCO)c3)N2C1=O"
a: 0.752

q: // lookup composite z-score for "O=C(O)[C@H]1C[C@H]2C(=O)NCC(=O)N2[C@H]1c1ccc(O)cc1"
a: 0.025

meta.source: PubChem BioAssay
